System: PBMC
assay.details: MTT assay, peripheral blood mononuclear cells
Assay type: cell-based, human
experimental.setup: Homo sapiens, PBMC, 72 h
pIC50: −log10 of the molar value.
parameter.measured: pIC50

{"compound": "COc1ccc2oc(N3CCN(CCOc4no[n+]([O-])c4S(=O)(=O)c4ccccc4)CC3)c(C(=O)O)c(=O)c2c1 [15d]", "value.measured": "< 4.30"}
{"compound": "CC(CN)Oc1no[n+]([O-])c1S(=O)(=O)c1ccccc1 (stereo not drawn) [5c]", "value.measured": "< 4.30"}
{"compound": "NCCOc1no[n+]([O-])c1S(=O)(=O)c1ccccc1 [5a]", "value.measured": "< 4.30"}
